Assay: Reversal of Pgp-mediated DOX resistance in human SW620/AD300 cells assessed as potentiation of DOX-induced cytotoxicity by measuring DOX IC50 at 1 uM incubated for 48 hrs by SRB assay (Rvb = 33.39 +/- 7.08 uM)
measuredProperty: IC50 (nM)
Numeric only. Scale: nM

What the record says about `COc1cc2c(cc1OC)CN(CCc1ccc(NC(=O)/C=C/c3ccc(Oc4ccc(-c5ccccn5)c(Cl)c4)nc3)cc1)CC2` : IC50 is 560

What the record says about COc1cc2c(cc1OC)CN(CCc1ccc(NC(=O)C3CC3c3ccc(Oc4ccc(-c5ccccn5)cc4)nc3)cc1)CC2 (configuration not stated) : IC50 is 760

What the record says about `COc1cc2c(cc1OC)CN(CCc1ccc(NC(=O)/C=C/c3ccc(Oc4ccc(-c5cccnc5)cc4)nc3)cc1)CC2` : IC50 is 390

What the record says about `COc1cc2c(cc1OC)CN(CCc1ccc(NC(=O)/C=C/c3c(-c4ccccc4)oc4ccccc4c3=O)cc1)CC2` : IC50 is 1360

What the record says about `COc1cc2c(cc1OC)CN(CCc1ccc(NC(=O)/C=C/c3ccc(Oc4ccc(-c5ccccn5)c(O)c4)nc3)cc1)CC2` : IC50 is 820

What the record says about `COc1cc2c(cc1OC)CN(CCc1ccc(NC(=O)/C=C/c3c(-c4ccccc4)n(C)c4ncccc34)cc1)CC2` : IC50 is 820

What the record says about `COc1ccc2c(C)c(CC(=O)Nc3ccc(CCN4CCc5cc(OC)c(OC)cc5C4)cc3)c(=O)oc2c1` : IC50 is 1970

What the record says about COc1cc2c(cc1OC)CN(CCc1ccc(NC(=O)C(c3c(-c4ccccc4)n(C)c4ccccc34)N3CCOCC3)cc1)CC2 (configuration not stated) : IC50 is 550

What the record says about `COc1cc2c(cc1OC)CN(CCc1ccc(NC(=O)/C=C/c3ccc(Oc4ccc(-c5ccccn5)c(C)c4)nc3)cc1)CC2` : IC50 is 490

What the record says about `COc1cc2c(cc1OC)CN(CCc1ccc(NC(=O)/C=C/c3ccc(Oc4ccc(-c5ccccn5)cc4C)nc3)cc1)CC2` : IC50 is 740

What the record says about `COc1cc2c(cc1OC)CN(CCc1ccc(NC(=O)/C=C/c3ccc(Oc4cc(O)c(-c5ccccn5)c(O)c4)nc3)cc1)CC2` : IC50 is 780

What the record says about `COc1cc2c(cc1OC)CN(CCc1ccc(NC(=O)/C=C/c3cc(-c4ccccn4)cc(C)c3Oc3ccccn3)cc1)CC2` : IC50 is 550
